System: HeLa
Assay: Antiviral activities in a cell culture HIV-1 infectivity inhibition assay using HeLa cells plus 50% normal human serum
Assay type: functional
Hi there, I'd appreciate the recorded IC90 for every entry that follows.
Give bare numbers, in nM.

Consider the worked cases shown below.
CCCCOc1ccc(Cc2cc(C3CCN(C[C@H]4CN([C@@H](C(=O)O)C5CCCCC5)C[C@@H]4c4cccc(F)c4)CC3)n(CC)n2)cc1 :: 33
CC[C@@H](C)[C@H](C(=O)O)N1C[C@H](CN2CCC(c3cc(Cc4ccc(OC5CC5)cc4)nn3CC)CC2)[C@@H](c2cccc(F)c2)C1 :: 33
CCn1nc(Cc2ccc(OC(C)(C)C)cc2)cc1C1CCN(C[C@H]2CN([C@@H](C(=O)O)C3CCCCC3)C[C@@H]2c2cccc(F)c2)CC1 :: 11
CCn1nc(Cc2ccc(O)cc2)cc1C1CCN(C[C@H]2CN([C@@H](C(=O)O)C(C)(C)C)C[C@@H]2c2cccc(F)c2)CC1 :: 11
CC[C@H](C)[C@H](C(=O)O)N1C[C@H](CN2CCC(c3cc(Cc4ccc5c(c4)OCO5)nn3CC)CC2)[C@@H](c2cccc(F)c2)C1 :: 100
CCn1nc(Cc2cccnc2)cc1C1CCN(C[C@H]2CN([C@@H](C(=O)O)C3CCCCC3)C[C@@H]2c2cccc(F)c2)CC1 :: 33
CC[C@H](C)[C@H](C(=O)O)N1C[C@H](CN2CCC(c3cc(Cc4ccc(OC(F)(F)F)cc4)nn3CC)CC2)[C@@H](c2cccc(F)c2)C1 :: 33
CC[C@H](C)[C@H](C(=O)O)N1C[C@H](CN2CCC(c3cc(Cc4ccc(C#N)cc4)nn3CC)CC2)[C@@H](c2cccc(F)c2)C1 :: 3.7
CCn1nc(Cc2ccc(S(=O)(=O)c3ccccc3)cc2)cc1C1CCN(C[C@H]2CN([C@@H](C(=O)O)C3CCCCC3)C[C@@H]2c2cccc(F)c2)CC1 :: 33
CC[C@H](C)[C@H](C(=O)O)N1C[C@H](CN2CCC(c3cc(Cc4ccccc4)nn3CC)CC2)[C@@H](c2cccc(F)c2)C1 :: 100

Would you mind giving IC90 for every compound in the list below?
1. CC[C@H](C)[C@H](C(=O)O)N1C[C@H](CN2CCC(c3cc(Cc4cccc(OC)c4)nn3CC)CC2)[C@@H](c2cccc(F)c2)C1
2. CCn1nc(Cc2ccc(OC(C)C)cc2)cc1C1CCN(C[C@H]2CN([C@@H](C(=O)O)C(C)(C)C)C[C@@H]2c2cccc(F)c2)CC1
3. CCn1nc(Cc2ccc(OC)c(OC)c2)cc1C1CCN(C[C@H]2CN([C@@H](C(=O)O)C(C)(C)C)C[C@@H]2c2cccc(F)c2)CC1
4. CC[C@@H](C)[C@H](C(=O)O)N1C[C@H](CN2CCC(c3cc(Cc4ccc(OC)c(OC)c4)nn3CC)CC2)[C@@H](c2cccc(F)c2)C1
5. CCn1nc(Cc2ccc(OC3CCC3)cc2)cc1C1CCN(C[C@H]2CN([C@@H](C(=O)O)C(C)C)C[C@@H]2c2cccc(F)c2)CC1

OUT:
1. 100
2. 11
3. 11
4. 33
5. 100

Would you mind giving IC90 for every compound in the list below?
1. CCn1nc(Cc2cccc(OC)c2)cc1C1CCN(C[C@H]2CN([C@@H](C(=O)O)C(C)(C)C)C[C@@H]2c2cccc(F)c2)CC1
2. CCn1nc(Cc2cccc(C#N)c2)cc1C1CCN(C[C@H]2CN([C@@H](C(=O)O)C(C)C)C[C@@H]2c2cccc(F)c2)CC1

OUT:
33
100
